Entries annotated with measured efflux ratio at 60 min, 5 µM
- measured-target: MDR1 (Homo sapiens)
- Construct: host or cells: MDCK-MDR1 (Preadyport)
- Sequence (P08183 whole entry): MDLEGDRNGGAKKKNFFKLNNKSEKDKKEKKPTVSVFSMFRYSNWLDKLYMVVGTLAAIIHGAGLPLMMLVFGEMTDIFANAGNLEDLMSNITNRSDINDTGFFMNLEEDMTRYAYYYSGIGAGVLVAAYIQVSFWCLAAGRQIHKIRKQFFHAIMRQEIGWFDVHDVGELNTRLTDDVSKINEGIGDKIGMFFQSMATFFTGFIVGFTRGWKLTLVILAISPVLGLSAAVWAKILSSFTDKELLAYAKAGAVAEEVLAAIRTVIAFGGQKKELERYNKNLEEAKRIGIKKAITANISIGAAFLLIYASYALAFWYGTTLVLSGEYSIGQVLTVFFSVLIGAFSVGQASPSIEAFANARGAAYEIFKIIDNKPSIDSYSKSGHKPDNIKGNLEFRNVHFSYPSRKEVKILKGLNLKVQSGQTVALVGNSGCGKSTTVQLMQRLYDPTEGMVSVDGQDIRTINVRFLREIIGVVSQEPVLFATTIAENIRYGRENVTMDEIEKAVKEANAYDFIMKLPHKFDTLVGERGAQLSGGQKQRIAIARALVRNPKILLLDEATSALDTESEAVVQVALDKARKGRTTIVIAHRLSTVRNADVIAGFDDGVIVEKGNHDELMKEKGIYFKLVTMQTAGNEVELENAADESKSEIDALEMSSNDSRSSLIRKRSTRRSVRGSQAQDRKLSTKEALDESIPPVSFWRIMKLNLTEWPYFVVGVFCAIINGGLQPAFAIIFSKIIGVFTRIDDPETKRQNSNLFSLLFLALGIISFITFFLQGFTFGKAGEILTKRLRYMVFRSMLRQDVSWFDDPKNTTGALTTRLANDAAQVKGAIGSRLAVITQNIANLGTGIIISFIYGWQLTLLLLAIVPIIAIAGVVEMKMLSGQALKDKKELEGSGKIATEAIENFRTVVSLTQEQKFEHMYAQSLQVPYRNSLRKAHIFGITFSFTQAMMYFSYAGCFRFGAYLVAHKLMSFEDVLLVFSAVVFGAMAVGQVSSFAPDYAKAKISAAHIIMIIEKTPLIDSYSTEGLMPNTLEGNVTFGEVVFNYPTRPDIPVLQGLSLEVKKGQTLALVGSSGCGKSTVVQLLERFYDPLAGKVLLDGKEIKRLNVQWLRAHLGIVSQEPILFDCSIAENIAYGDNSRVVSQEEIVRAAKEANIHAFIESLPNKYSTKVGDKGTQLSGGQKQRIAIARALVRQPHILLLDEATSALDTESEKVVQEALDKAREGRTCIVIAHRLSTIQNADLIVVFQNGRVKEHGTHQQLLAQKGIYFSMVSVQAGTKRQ
- assay-text: MDR1 efflux substrate assay in MDCK-MDR1
- Type: in vitro ADME
- recorded-conditions: dog, MDCK-MDR1, pH 7.4; read-out: Efflux ratio B/A

{"compound": "Brc1cnn2c(NCc3ccc(-c4ccccn4)cc3)nc(NC[C@@H]3CCCN3)nc12 [Compound 2571]", "efflux ratio at 60 min, 5 µM": 108}
{"compound": "N[C@H]1CCCC[C@@H]1Nc1nc(NCc2ccc(-c3ccccn3)cc2)n2ncc(Br)c2n1 [Compound 2671]", "efflux ratio at 60 min, 5 µM": 43.7}
{"compound": "CN(CCN)c1nc(NCc2ccc(-c3ccccn3)cc2)n2ncc(Br)c2n1 [Compound 2600]", "efflux ratio at 60 min, 5 µM": 28.9}
{"compound": "N[C@H]1CCN(c2nc(NCc3ccc(-c4ccccn4)cc3)n3ncc(Br)c3n2)C1 [Compound 2655]", "efflux ratio at 60 min, 5 µM": 5.25}
{"compound": "CNCCN(C)c1nc(NCc2ccc(-c3ccccn3)cc2)n2ncc(Br)c2n1 [Compound 2605]", "efflux ratio at 60 min, 5 µM": 13.4}
{"compound": "N[C@H]1CCC[C@@H]1Nc1nc(NCc2ccc(-c3ccccn3)cc2)n2ncc(Br)c2n1 [Compound 2668]", "efflux ratio at 60 min, 5 µM": 41.6}
{"compound": "CC[C@@]1(O)C(=O)OCc2c1cc1n(c2=O)Cc2c-1nc1cc(F)c(C)c3c1c2[C@@H](N)CC3 [Exatecan, reference compound]", "efflux ratio at 60 min, 5 µM": 7.31}
